Please enter Satisfied where logP is greater than or equal to 0.9, and Not satisfied where it is lower.

Worked examples, 2 molecules total:
[[record]]
molecule = "COc1cccc(CC(=O)O)c1"
class = "Satisfied"

[[record]]
molecule = "CCC(NC(C)=O)C(=O)OC (stereo unspecified)"
class = "Not satisfied"


Task item: Has `CCNC(=O)NO` a recorded logP greater than or equal to 0.9?
Reply: Not satisfied

Task item: Has `NS(=O)(=O)c1ccc(Br)cc1` a recorded logP greater than or equal to 0.9?
Reply: Satisfied

Task item: Has `NC(=O)c1ccco1` a recorded logP greater than or equal to 0.9?
Reply: Not satisfied

Task item: Has `NNC(=O)c1ccnc(F)c1` a recorded logP greater than or equal to 0.9?
Reply: Not satisfied

Task item: Has `CN(C)C#N` a recorded logP greater than or equal to 0.9?
Reply: Not satisfied

Task item: Has `CN(C)C1=CC(=O)C(N(C)C)=CC1=O` a recorded logP greater than or equal to 0.9?
Reply: Satisfied

---

Cut-off 1 on logP: below means yes, at or above means no.

Worked examples, 2 compounds total:
[[record]]
compound = "CC12CC3CC(C)(C1)CC(N)(C3)C2"
class = "no"

[[record]]
compound = "O=C(O)COc1cccc([N+](=O)[O-])c1"
class = "no"


Task item: Please let me know if `N#CCCc1ccccc1` shows logP below 1.
Reply: no

Task item: Please let me know if `O=C(NP(=O)(N1CC1)N1CC1)c1cccc(Br)c1` shows logP below 1.
Reply: no

Task item: Please let me know if `CNC(=S)N(C)C` shows logP below 1.
Reply: yes

Task item: Please let me know if `COC(=O)c1c[nH]c(C)c1` shows logP below 1.
Reply: no

Task item: Please let me know if `c1ccc2c(c1)Oc1ccccc1S2` shows logP below 1.
Reply: no

Task item: Please let me know if `Brc1ccncc1` shows logP below 1.
Reply: no

Task item: Please let me know if `CC(C)(C)c1ccccn1` shows logP below 1.
Reply: no

Task item: Please let me know if `CN(Cc1cnc2nc(N)nc(N)c2n1)c1c(Cl)cc(C(=O)N[C@@H](CCC(=O)O)C(=O)O)cc1Cl` shows logP below 1.
Reply: yes

Task item: Please let me know if `CN(C)c1ccc2c(c1)C(c1ccccc1Cl)=NCC(=O)N2C` shows logP below 1.
Reply: no

Task item: Please let me know if `O=C(CCn1cnc([N+](=O)[O-])n1)N1CCOCC1` shows logP below 1.
Reply: yes

Task item: Please let me know if `Brc1cc(Br)cc(Br)c1` shows logP below 1.
Reply: no

Task item: Please let me know if `CSc1cccc(-c2nc(N)nc(N)n2)c1` shows logP below 1.
Reply: no

---

logP values by entry
Reply with the value as a number alone.

Some entries whose results are on file:
[[record]]
compound = "CNC(=O)c1ccccc1C(=O)c1ccccc1"
reported_property = "logP"
data_value = 2.09

[[record]]
compound = "COCOC"
reported_property = "logP"
data_value = 0

[[record]]
compound = "CCN(N=O)C(N)=O"
reported_property = "logP"
data_value = 0.23


Task item: Give logP for `Fc1ccccc1Cn1cc[nH]c1=S`
Reply: 1.77

Task item: Give logP for `CCc1cc(-c2ccccc2)nnc1NCCN1CCOCC1`
Reply: 2.53

Task item: Give logP for `CC(C)N(C)/N=N/c1ccc(C(N)=O)cc1`
Reply: 2.02

Task item: Give logP for CCC(C)c1ccccc1OCC(=O)O (stereo not given)
Reply: 3.32

Task item: Give logP for `c1ccc2c(c1)CCCC2`
Reply: 3.49

Task item: Give logP for `CN(C)C(=O)c1ccccc1`
Reply: 0.62

Task item: Give logP for `CC(=O)C(=Cc1ccc(C)cc1)C(C)=O`
Reply: 2.14

Task item: Give logP for `O=C(O)c1ccsc1`
Reply: 1.5

Task item: Give logP for `CC(=O)N[C@@H](CC(N)=O)C(=O)N[C@H](C(N)=O)C(C)C`
Reply: -1.85

Task item: Give logP for `COc1cc2c(c(OC)c1O)-c1ccc(OC)c(=O)cc1[C@@H](NC(C)=O)CC2`
Reply: 0.48

Task item: Give logP for `COc1ccccc1OC`
Reply: 1.6

Task item: Give logP for `COc1ccc(CN(CCN(C)C)c2ccccn2)cc1`
Reply: 3.27

---

logP values by entry
Reply with the value as a number alone.

Some entries whose results are on file:
[[record]]
molecule = "CCCCC1CC(C(=O)NC(C(C)O)C2OC(SC)C(O)C(O)C2O)N(C)C1 (stereo unspecified)"
reported_property = "logP"
data_value = 0.56

[[record]]
molecule = "NC(=O)c1ccc2[nH]ccc2c1"
reported_property = "logP"
data_value = 0.87

[[record]]
molecule = "CC(=O)c1cccc(Cl)c1"
reported_property = "logP"
data_value = 2.51


Task item: Give logP for `S=C=NCc1ccccc1`
Reply: 3.16

Task item: Give logP for `CC(C)CC#N`
Reply: 1.07

Task item: Give logP for `Nc1cccnc1`
Reply: 0.11

Task item: Give logP for `CCCNC(=O)c1ccc(S(N)(=O)=O)cc1`
Reply: 0.51

Task item: Give logP for `O=[N+]([O-])c1ccc2cccnc2c1`
Reply: 1.82

Task item: Give logP for `Cc1ccc2cccc(C)c2c1`
Reply: 4.44

Task item: Give logP for C=C(C)C(=O)OCC(C)O (stereo unspecified)
Reply: 0.97

Task item: Give logP for `CCN(N=O)C(=O)N(C)C`
Reply: 0.71

Task item: Give logP for `OCc1ccc2cccnc2c1`
Reply: 1.29

Task item: Give logP for `CCCNC(=O)NS(=O)(=O)c1ccc(Cl)cc1`
Reply: 2.27

Task item: Give logP for `CC(C)(C)N`
Reply: 0.4

Task item: Give logP for `COc1ccc(NC(=O)N(C)C)cc1Cl`
Reply: 1.64

Task item: Give logP for `Oc1ccc(Cl)c(Cl)c1Cl`
Reply: 3.8

---

Cut-off 2 on logP: below means Criterion met, at or above means Criterion not met.

Task item: Please let me know if `C=C(C)[C@H]1Cc2c(ccc3c2O[C@@H]2COc4cc(OC)c(OC)cc4[C@@H]2C3=O)O1` shows logP below 2.
Reply: Criterion not met

Task item: Please let me know if `OC[C@H]1O[C@@H](Oc2ccc(O)cc2)[C@H](O)[C@@H](O)[C@@H]1O` shows logP below 2.
Reply: Criterion met

Task item: Please let me know if `O=S(=O)(N=[N+]([O-])c1ccccc1)c1ccccc1` shows logP below 2.
Reply: Criterion not met

---

logP values by entry
Reply with the value as a number alone.

Some entries whose results are on file:
[[record]]
compound = "CC(=O)Nc1ccc2cccccc1-2"
data_value = 2.48

[[record]]
compound = "C=CC(N)=O"
data_value = -0.67

[[record]]
compound = "O=[N+]([O-])c1ccccc1F"
data_value = 1.69

[[record]]
compound = "CC1C(c2ccccc2)OCCN1N=O (stereo not given)"
data_value = 2.09

[[record]]
compound = "C=C(Br)CC1(C(C)CCC)C(=O)NC(=O)NC1=O (stereo not given)"
data_value = 2.09

[[record]]
compound = "O=[N+]([O-])C=Cc1ccc(Cl)cc1Cl"
data_value = 3.26


Switching to the query record.
Task item: Give logP for `CC(C)(CCC(=O)O)C(=O)O`
Reply: 0.67

---

Reported Property: logP
Reply with the value as a number alone.

Some entries whose results are on file:
[[record]]
compound = "Nc1nc(N)nc(-c2ccc(F)cc2)n1"
data_value = 1.61

[[record]]
compound = "CC(C)(C)C1Nc2cc(Cl)c(S(N)(=O)=O)cc2S(=O)(=O)N1 (centres undefined)"
data_value = 0.36

[[record]]
compound = "COP(=S)(OC)Oc1cc(C)c([N+](=O)[O-])c(C)c1"
data_value = 3.89

[[record]]
compound = "CF"
data_value = 0.51

[[record]]
compound = "COC(=O)COc1ccccc1"
data_value = 1.41


Task item: Give logP for `C=CCC1(CC(=C)Br)C(=O)NC(=O)NC1=O`
Reply: 1.37

Task item: Give logP for CCc1cccc(S(I)=C(N(C)C)N(C)C)c1 (centres undefined)
Reply: 0.34

Task item: Give logP for `Oc1ccc(C(c2ccccc2)c2ccc(O)cc2)cc1`
Reply: 4.3

Task item: Give logP for `ClCCc1ccccc1`
Reply: 2.95

Task item: Give logP for `CCNc1nc(NC(C)(C)C)nc(SC)n1`
Reply: 3.74

Task item: Give logP for `CCCNC(=O)c1[nH]nc(C)c1[N+](=O)[O-]`
Reply: 0.65

Task item: Give logP for `NC(=S)c1ccccn1`
Reply: 1.24

Task item: Give logP for `CCCCCn1cnc2c(N)ncnc21`
Reply: 1.79

Task item: Give logP for `CC(=O)Nc1ccc(C(=O)O)cc1`
Reply: 1.31
